Every entry's value here was drawn from ChEMBL document CHEMBL3779872.

# System: Liver microsome
# Assay comment: Covalent protein binding in human liver microsomes assessed per mg of protein by mass spectrometric analysis
# Format: ADME
Lab note: cut-off is 30 pmol. Strictly less in PB is yes. Exactly 30 pmol or more is no.

# Entry smiles, Category label
records = [
    ("NC1=N[C@@H](c2ccc(Cl)cc2C2CC2)CO1", "no"),
    ("C[C@]1(c2ccc(Br)cc2)COC(N)=N1", "yes"),
    ("CCc1cc(Cl)ccc1[C@H]1COC(N)=N1", "yes"),
    ("Cc1c(F)cccc1[C@H]1COC(N)=N1", "yes"),
    ("CC[C@@H](C[C@H]1COC(N)=N1)c1ccccc1", "yes"),
]
